target: BTK (Homo sapiens, UniProt Q06187); experiment: BTK degradation, DC50 and Dmax of Table 1 (cell line not given); format: cell-based; design: endogenous in cells
Sequence (Q06187 whole entry): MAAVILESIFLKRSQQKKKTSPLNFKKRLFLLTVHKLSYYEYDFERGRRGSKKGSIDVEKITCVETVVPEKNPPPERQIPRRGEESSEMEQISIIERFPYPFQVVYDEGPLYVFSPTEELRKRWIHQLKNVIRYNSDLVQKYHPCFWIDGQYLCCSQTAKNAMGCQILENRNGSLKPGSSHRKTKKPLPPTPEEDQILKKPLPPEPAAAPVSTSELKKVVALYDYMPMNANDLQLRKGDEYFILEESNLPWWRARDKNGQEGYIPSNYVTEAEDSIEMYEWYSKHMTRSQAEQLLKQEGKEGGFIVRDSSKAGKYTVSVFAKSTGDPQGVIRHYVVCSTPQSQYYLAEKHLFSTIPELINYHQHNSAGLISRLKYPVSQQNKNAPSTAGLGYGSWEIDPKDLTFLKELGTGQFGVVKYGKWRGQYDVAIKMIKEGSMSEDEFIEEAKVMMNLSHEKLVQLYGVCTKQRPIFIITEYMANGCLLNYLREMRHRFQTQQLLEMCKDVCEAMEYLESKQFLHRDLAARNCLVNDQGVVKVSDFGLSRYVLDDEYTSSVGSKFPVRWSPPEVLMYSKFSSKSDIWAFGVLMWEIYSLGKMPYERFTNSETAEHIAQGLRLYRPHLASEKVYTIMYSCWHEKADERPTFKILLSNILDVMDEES
Entries and their Dmax

In the examples that follow, each entry is paired with its recorded Dmax.
Molecule: Nc1ncnc2c1c(-c1ccc(Oc3ccccc3)cc1)nn2C1CCN(C(=O)N2CCC(C3CCN(c4ccc5c(c4)CN(C4CCC(=O)NC4=O)C5=O)CC3)CC2)CC1 (centres unmarked)
Dmax: > 75%
//
Molecule: Nc1ncnc2c1c(-c1ccc(Oc3ccccc3)cc1)nn2[C@@H]1CCCN(CC2CCN(CCCC3CCN(c4ccc5c(c4)CN(C4CCC(=O)NC4=O)C5=O)CC3)CC2)C1 (some centres unmarked)
Dmax: > 75%
//
Molecule: Nc1ncnc2c1c(-c1ccc(Oc3ccccc3)cc1)nn2[C@@H]1CCCN(C2CCN(C(=O)N3CCC(c4ccc5c(c4)C(=O)N(C4CCC(=O)NC4=O)C5=O)CC3)CC2)C1 (some centres unmarked)
Dmax: > 50%
//
Molecule: Nc1ncnc2c1c(-c1ccc(Oc3ccccc3)cc1)nn2C1CCCN(CCOCCN2CCC(c3ccc4c(c3)CN(C3CCC(=O)NC3=O)C4=O)CC2)C1 (centres unmarked)
Dmax: > 90%
//
Molecule: Nc1ncnc2c1c(-c1ccc(Oc3ccccc3)cc1)nn2C1CCN(CCOCCN2CCC(c3ccc4c(c3)CN(C3CCC(=O)NC3=O)C4=O)CC2)CC1 (centres unmarked)
Dmax: > 90%

Noted for Nc1ncnc2c1c(-c1ccc(Oc3ccccc3)cc1)nn2[C@@H]1CCCN(C2CCN(C(=O)N3CCC(N4CCN(c5ccc6c(c5)C(=O)N(C5CCC(=O)NC5=O)C6=O)CC4)CC3)CC2)C1 (some centres unmarked) : its Dmax reads > 90%

Noted for Nc1ncnc2c1c(-c1ccc(Oc3ccccc3)cc1)nn2[C@@H]1CCCN(CC2CCN(C(=O)N3CCN(c4ccc5c(c4)C(=O)N(C4CCC(=O)NC4=O)C5=O)CC3)CC2)C1 (some centres unmarked) : its Dmax reads > 75%

Noted for Nc1ncnc2c1c(-c1ccc(Oc3ccccc3)cc1)nn2[C@@H]1CCCN(C(=O)N2CCC(CCCN3CCN(c4ccc5c(c4)C(=O)N(C4CCC(=O)NC4=O)C5=O)CC3)CC2)C1 (some centres unmarked) : its Dmax reads > 75%

Noted for Nc1ncnc2c1c(-c1ccc(Oc3ccccc3)cc1)nn2[C@@H]1CCCN(C(=O)N2CCC(N3CCN(c4ccc5c(c4)C(=O)N(C4CCC(=O)NC4=O)C5=O)CC3)CC2)C1 (some centres unmarked) : its Dmax reads > 90%

Noted for Nc1ncnc2c1c(-c1ccc(Oc3ccccc3)cc1)nn2C1CCCN(CCOCCOCCN2CCC(c3ccc4c(c3)C(=O)N(C3CCC(=O)NC3=O)C4=O)CC2)C1 (centres unmarked) : its Dmax reads > 75%

* * *

biological target: BTK (Homo sapiens, UniProt Q06187); assay: BTK degradation, DC50 and Dmax of Table 1 (cell line not given); format: cell-based; parameters: endogenous in cells
Property label: Dmax

Molecule: Nc1ncnc2c1c(-c1ccc(Oc3ccccc3)cc1)nn2[C@@H]1CCCN(C2CCN(C(=O)N3CCN(CCN4CCC(c5ccc6c(c5)C(=O)N(C5CCC(=O)NC5=O)C6=O)CC4)CC3)CC2)C1 (some centres unmarked)
Dmax: > 75%
//
Molecule: Nc1ncnc2c1c(-c1ccc(Oc3ccccc3)cc1)nn2C1CCN(C(=O)N2CCC(N3CCC(c4ccc5c(c4)CN(C4CCC(=O)NC4=O)C5=O)CC3)CC2)CC1 (centres unmarked)
Dmax: > 75%
//
Molecule: Nc1ncnc2c1c(-c1ccc(Oc3ccccc3)cc1)nn2[C@@H]1CCCN(C2CCN(C(=O)N3CCC(CCCN4CCN(c5ccc6c(c5)C(=O)N(C5CCC(=O)NC5=O)C6=O)CC4)CC3)CC2)C1 (some centres unmarked)
Dmax: > 50%

Noted for Nc1ncnc2c1c(-c1ccc(Oc3ccccc3)cc1)nn2[C@@H]1CCCN(CC2CCN(C(=O)N3CCC(N4CCN(c5ccc6c(c5)CN(C5CCC(=O)NC5=O)C6=O)CC4)CC3)CC2)C1 (some centres unmarked) : its Dmax reads > 90%

Noted for Nc1ncnc2c1c(-c1ccc(Oc3ccccc3)cc1)nn2[C@@H]1CCCN(CC2CCN(C(=O)N3CCC(N4CCN(c5ccc6c(c5)C(=O)N(C5CCC(=O)NC5=O)C6=O)CC4)CC3)CC2)C1 (some centres unmarked) : its Dmax reads > 90%

* * *

Entries and their DC50
target: BTK (Homo sapiens, UniProt Q06187); assay: BTK degradation, DC50 and Dmax of Table 1 (cell line not given); format: cell-based; parameters: endogenous in cells; conditions: concentration giving 50% reduction of BTK expression level

Compound: Nc1ncnc2c1c(-c1ccc(Oc3ccccc3)cc1)nn2C1CCN(C(=O)N2CCC(N3CCC(c4ccc5c(c4)C(=O)N(C4CCC(=O)NC4=O)C5=O)CC3)CC2)CC1 (centres unmarked)
DC50: > 0.05 µM
--
Compound: Nc1ncnc2c1c(-c1ccc(Oc3ccccc3)cc1)nn2[C@@H]1CCCN(CC2CCN(CCN3CCC(c4ccc5c(c4)C(=O)N(C4CCC(=O)NC4=O)C5=O)CC3)CC2)C1 (some centres unmarked)
DC50: < 0.01 µM
--
Compound: Nc1ncnc2c1c(-c1ccc(Oc3ccccc3)cc1)nn2[C@@H]1CCCN(CC2CCN(CC3CCN(c4ccc5c(c4)C(=O)N(C4CCC(=O)NC4=O)C5=O)CC3)CC2)C1 (some centres unmarked)
DC50: 0.01 to 0.05 µM
--
Compound: Nc1ncnc2c1c(-c1ccc(Oc3ccccc3)cc1)nn2C1CCN(C(=O)N2CCC(C3CCN(c4ccc5c(c4)CN(C4CCC(=O)NC4=O)C5=O)CC3)CC2)CC1 (centres unmarked)
DC50: > 0.05 µM
--
Compound: Nc1ncnc2c1c(-c1ccc(Oc3ccccc3)cc1)nn2C1CCN(C(=O)N2CCC(c3ccc4c(c3)CN(C3CCC(=O)NC3=O)C4=O)CC2)CC1 (centres unmarked)
DC50: > 0.05 µM
--
Compound: Nc1ncnc2c1c(-c1ccc(Oc3ccccc3)cc1)nn2[C@@H]1CCCN(C2CCN(CC3CCN(c4ccc5c(c4)CN(C4CCC(=O)NC4=O)C5=O)CC3)CC2)C1 (some centres unmarked)
DC50: 0.01 to 0.05 µM
--
Compound: Nc1ncnc2c1c(-c1ccc(Oc3ccccc3)cc1)nn2[C@@H]1CCCN(C2CCN(C(=O)N3CCC(CCC4CCN(c5ccc6c(c5)C(=O)N(C5CCC(=O)NC5=O)C6=O)CC4)CC3)CC2)C1 (some centres unmarked)
DC50: 0.01 to 0.05 µM
--
Compound: Nc1ncnc2c1c(-c1ccc(Oc3ccccc3)cc1)nn2C1CCN(C(=O)N2CCC(CN3CCN(c4ccc5c(c4)CN(C4CCC(=O)NC4=O)C5=O)CC3)CC2)CC1 (centres unmarked)
DC50: < 0.01 µM
--
Compound: Nc1ncnc2c1c(-c1ccc(Oc3ccccc3)cc1)nn2[C@@H]1CCCN(C(=O)N2CCC(CCCC3CCN(c4ccc5c(c4)CN(C4CCC(=O)NC4=O)C5=O)CC3)CC2)C1 (some centres unmarked)
DC50: > 0.05 µM
--
Compound: Nc1ncnc2c1c(-c1ccc(Oc3ccccc3)cc1)nn2[C@@H]1CCCN(C(=O)N2CCC(CCN3CCN(c4ccc5c(c4)CN(C4CCC(=O)NC4=O)C5=O)CC3)CC2)C1 (some centres unmarked)
DC50: < 0.01 µM

Noted for Nc1ncnc2c1c(-c1ccc(Oc3ccccc3)cc1)nn2[C@@H]1CCCN(C(=O)N2CCN(CCCN3CCC(c4ccc5c(c4)C(=O)N(C4CCC(=O)NC4=O)C5=O)CC3)CC2)C1 (some centres unmarked) : its DC50 reads > 0.05 µM

* * *

biological target: BTK (Homo sapiens); assay: Degradation of BTK protein in Namalwa cells (Western blot; DC50, Dmax); conditions: read-out: DC50 (BTK degradation); concentration giving 50% reduction of BTK expression level; cell line not given
Property label: DC50

Fill in: BTK (Homo sapiens) DC50 for Nc1ncnc2c1c(-c1ccc(Oc3ccccc3)cc1)nn2[C@@H]1CCCN(C2CN(C(=O)N3CC(N4CCN(c5ccc6c(c5)C(=O)N(C5CCC(=O)NC5=O)C6=O)CC4)C3)C2)C1 (some centres unmarked) [Compound 479] = < 0.01 µM

Fill in: BTK (Homo sapiens) DC50 for Nc1ncnc2c1c(-c1ccc(Oc3ccccc3)cc1)nn2C1CCN(CCN2CCC(CN3CCC(c4ccc(N5CCC(=O)NC5=O)cc4)CC3)C2)CC1 (centres unmarked) [Compound 548] = < 0.01 µM

Fill in: BTK (Homo sapiens) DC50 for Nc1ncnc2c1c(-c1ccc(Oc3ccccc3)cc1)nn2C1CCN(CCCN2CCC(CN3CCN(c4ccc(N5CCC(=O)NC5=O)cc4)CC3)C2)CC1 (centres unmarked) [Compound 551] = 0.01 to 0.05 µM

Fill in: BTK (Homo sapiens) DC50 for Nc1ncnc2c1c(-c1ccc(Oc3ccccc3)cc1)nn2C1CCN(CC2CCN(CC3CCN(c4ccc5c(c4)C(=O)N(C4CCC(=O)NC4=O)C5=O)C3)C2)CC1 (centres unmarked) [Compound 447] = 0.01 to 0.05 µM

Fill in: BTK (Homo sapiens) DC50 for Nc1ncnc2c1c(-c1ccc(Oc3ccccc3)cc1)nn2C1CCN(C2CCN(CC3CN(c4ccc5c(c4)CN(C4CCC(=O)NC4=O)C5=O)C3)C2)CC1 (centres unmarked) [Compound 426] = 0.01 to 0.05 µM
